tested on: DU-145 prostate; assay: NCI-60 one-dose screen, 48 h (100 = growth as untreated, 0 = no growth, -100 = all killed); details: 10 µM unless noted
The panel holds about 83,000 compounds, 20% with a hit somewhere; the sample as a whole holds those more often. Activity calls are given as the source filed them. How the source made its calls: active means growth percent below 10; inactive means the rest.
valueType: growth

These recorded examples may help you get a feel for the data.
Which growth is reported with DU-145 prostate for this entry: `C/C(=N\N=C\c1cc([N+](=O)[O-])ccc1Cl)c1ccc2c(c1)Nc1ccccc1S2` ? 84.2% (inactive)

`CC(C)Sc1nc(NCCc2c[nH]c3ccccc23)c(C#N)c(-c2ccccc2)n1` ? 42.5% (inactive)

`COc1cc(CNC(=O)/C=C/c2ccc3c(c2)OCO3)ccc1OCc1cn(-c2ccc([N+](=O)[O-])cc2)nn1` ? 103% (inactive)

C=C1CCC2C3(C)COC(c4ccc(F)cc4)OC3CCC2(C)C1C/C=C1/C(=O)OCC1O (stereo not drawn) ? -41.4% (active)

C=C1CC[C@@H]2[C@]3(C)COC(c4cn[nH]c4-c4ccc(F)cc4)O[C@@H]3CC[C@@]2(C)[C@@H]1C/C=C1/C(=O)OCC1O (stereo partly drawn) ? -23% (active)

Please supply growth for each of the following items, keeping them in order.
1. C=C1CCC2C3(C)COC(c4ccccc4)OC3CCC2(C)C1CC(Sc1ccccc1)C1=CCOC1=O (stereo not drawn)
2. Cn1cc(-c2nnc(N)nc2-c2c[nH]c3ccc(Br)cc23)c2cc(Br)cnc21
3. COc1c(F)ccc(C(=O)Nc2ccc3nc(NC(=O)C4CCCN(S(=O)(=O)c5ccc(Br)s5)C4)sc3c2)c1F (stereo not drawn)
4. Cn1cc(-c2cc3nc(-c4cn(C)c5ncc(Br)cc45)cc(N)n3n2)c2ccccc21
5. CCN(CC)c1ccc(/C=N/Nc2nc(-c3ccc(Br)cc3)cs2)c(O)c1
6. Cc1cccc(-c2nc(Nc3ccc(C)c(S(N)(=O)=O)c3)c3ccccc3n2)c1
7. O=C(N=Nc1c(O)[nH]c2ccc(Cl)cc12)c1ccc2nc(-c3ccccc3)[nH]c2c1
8. Clc1cccc(-c2ccc(OCCCN3CCN(c4ccncc4)CC3)cc2)c1

["70.6% (inactive)", "75.8% (inactive)", "88% (inactive)", "16.1% (inactive)", "91.7% (inactive)", "53.2% (inactive)", "10.9% (inactive)", "35.2% (inactive)"]

Please supply growth for each of the following items, keeping them in order.
1. COc1cc(/C=C/C(=O)c2ccc(C)cc2)ccc1Oc1nc(Nc2ccc(F)cc2)nc(N(C)C)n1
2. CCS(=O)(=O)N1CCCC(C(=O)Nc2nc3ccc(NC(=O)c4ccc(F)c(OC)c4F)cc3s2)C1 (stereo not drawn)
3. CN1C(=O)/C(=C/c2ccc(C(=O)Nc3ncc(Cc4ccc(Cl)cc4Cl)s3)cc2)SC1=S
4. C#CCOc1cc(N(CC)CC)ccc1C(C(=O)NC(C)(C)C)N(C(=O)C1CCc2cc(F)ccc2O1)c1ccccc1Br (stereo not drawn)
5. C=C1CCC2C3(C)COC(c4ccco4)OC3CCC2(C)C1CC(Sc1ccccc1)C1=CCOC1=O (stereo not drawn)

1. 50.1% (inactive)
2. 77.2% (inactive)
3. 30.7% (inactive)
4. 74% (inactive)
5. 78.4% (inactive)

---

So I've got a bunch of compounds here, and I need their growth values.
System: OVCAR-5 ovarian
Assay: NCI-60 one-dose screen, 48 h (100 = growth as untreated, 0 = no growth, -100 = all killed)
Conditions: 10 µM unless noted
Procedure: Growth inhibition of the OVCAR-5 human tumor cell line is measured as a screen for anti-cancer activity. Cells are grown in 96 well plates and exposed to the test compound for 48 hours. Compounds are tested at a single concentration, which is 10^-5 M for most compounds. The reported endpoint is percent growth (GI% or GIPRCNT), where numbers from 0 - 100% represent growth inhibition, and numbers from -100% - 0 represent cell death. For example, a value of 40 represents 60% growth inhibition. […]
About 83,000 compounds went through this panel and 20% of them were active in at least one assay; those are over-represented in the sample as a whole.
One number for each entry, in %.

These recorded examples may help you get a feel for the data.
Which growth is listed for `O=C(NN1C(=O)/C(=C/C=C/c2ccc([N+](=O)[O-])o2)SC1=S)c1ccccc1O` ? -98.8

COc1cc2c(c(OC)c1OC)C(=O)CC(c1cccc(NC(=O)c3cccc([N+](=O)[O-])c3)c1)O2 (centres undefined) ? 79.3

CN(C)c1nc(NCCNS(=O)(=O)c2ccc(C3=Nc4c(N)nc(N)nc4NC(c4ccc(Cl)cc4)C3)cc2)nc(Nc2ccc(F)cc2)n1 (centres undefined) ? 72.6

`CCOC(=O)COc1c(OC)c(OC)cc2oc(-c3cccc(C(=O)Nc4ccc(Cl)cc4)c3)cc(=O)c12` ? 81.4

`Cn1cc(-c2cc(N)n3nc(-c4c[nH]c5ccccc45)cc3n2)c2cc(Br)cnc21` ? -77.6

`COc1ccc([C@H](C)Nc2nc(Cl)nc3ccccc23)cc1` ? 54.7

`COc1ccc2cc([C@H](C)C(=O)N/N=C/c3ccc(Br)cc3)ccc2c1` ? 100

`CN(C)CCCNC(=O)c1cc(NC(=O)c2cc(NC(=O)c3ccc(C#Cc4ccccc4)cc3)cn2C)cn1C` ? 36.8

`CCCCNC(=S)Nc1ccc(OCc2nc3ccccc3[nH]2)cc1` ? 86

`COc1ccc2[nH]c(O)c(N=NC(=O)Cn3c(-c4ccccc4)nc4cc(C)ccc43)c2c1` ? 62.8

Please supply growth for each of the following items, keeping them in order.
1. Cn1cc(-c2nc(N)nnc2-c2c[nH]c3ccc(F)cc23)c2cccnc21
2. C/C(=N\Nc1ccc(S(N)(=O)=O)cc1)c1ccc(N=Nc2c(Nc3ccccc3)[nH][nH]c2=O)cc1
3. CC(C)CSc1nc(NCCc2c[nH]c3ccccc23)c(C#N)c(-c2ccc(F)cc2)n1
4. COc1c(F)ccc(C(=O)Nc2ccc3nc(NC(=O)C4CCCN(S(=O)(=O)c5ccc(C(F)(F)F)cc5)C4)sc3c2)c1F (centres undefined)
5. NS(=O)(=O)c1ccc(N=Nc2c(O)n(CC(=O)Nc3ccccc3)c3ccccc23)cc1

1: 80.2; 2: 58.3; 3: 101; 4: 100; 5: 74.5

Please supply growth for each of the following items, keeping them in order.
1. C#CCOc1ccc(/C=N/Nc2nc(-c3ccc(F)cc3)cs2)cc1OC
2. CC(=O)Nc1cccc(-c2nc3cc(-c4ccc(O)cc4)ccc3n2C)c1
3. COC(OC)C1=C(C)OC(N)=C(C#N)C12C(=O)Nc1ccccc12 (centres undefined)
4. N/C(=N\c1nc2ccccc2s1)NC(=O)Nc1ccc(Cl)cc1Cl

[84.9, 93.6, 112, -73.2]

---

test system: SW-620 colon; assay: NCI-60 one-dose screen, 48 h (100 = growth as untreated, 0 = no growth, -100 = all killed); settings: 10 µM unless noted
Compounds without any hit were thinned out: in the full panel of roughly 83,000, 20% have a hit.
Labelling: growth reported below 90% becomes met; at or above becomes not met.

Reference set, count: 4
Consider `COc1cc2oc(-c3cccc(NC(=O)[C@H](CC(N)=O)NC(=O)OC(C)(C)C)c3)cc(=O)c2c(OC)c1OC` . Does its growth lie strictly below 90%? not met

`O=C(COc1ccc(NC(=O)Nc2ccccc2)cc1)N=Nc1c(O)[nH]c2ccc([N+](=O)[O-])cc12` ? met

`NC(=S)Nc1cccc(NC(N)=S)c1` ? not met

`Cc1cc(=O)oc2cc(OCCCOc3ccc(/C=C/C(=O)Nc4ccccc4N)cc3)ccc12` ? met

***
Consider CN(C)c1nc(NCCNS(=O)(=O)c2ccc(C3=Nc4c(N)nc(N)nc4NC(c4ccccc4)C3)cc2)nc(Nc2ccc(F)cc2)n1 (stereo not given) . Does its growth lie strictly below 90%? met

---

tested on: T-47D breast; assay: NCI-60 one-dose screen, 48 h; conditions: 10 µM unless noted
Compounds without any hit were thinned out: in the full panel of roughly 83,000, 20% have a hit. Calls of active or inactive are those of the source. How the source made its calls: active means growth percent below 10; inactive means the rest.
Answer with one of the outcomes given here: true (1) (active), false (0) (inactive)

Fill in: this test's call for CC1=C(C(=O)OC(C)C)C(c2cccc(O)c2)NC(=S)N1 (centres undefined) is ___ false (0)

`S=C(NCCc1ccccc1)Nc1ccc(OCc2nc3ccccc3[nH]2)cc1` ? false (0)

`COC1=C[C@]23CCC(=O)N2CCc2cc4c(cc2[C@@H]3[C@@H]1OC(=O)[C@H](C)O)OCO4` ? false (0)

CC1(C)CC[C@]2(C(=O)Nc3ccc(F)cc3)CC[C@]3(C)C(=CCC4[C@@]5(C)C[C@@H](O)[C@H](O)[C@@](C)(CO)C5CC[C@]43C)C2C1 (some centres undefined) ? false (0)

`O=C1Nc2cc(Cl)ccc2/C1=C/c1cccc(OCc2ccccn2)c1` ? false (0)

C#CCOc1cc(N(CC)CC)ccc1C(C(=O)NC(C)(C)C)N(C(=O)C1CCc2cc(F)ccc2O1)c1ccc(F)c(Cl)c1 (centres undefined) ? false (0)

`O=C(COc1ccc(NC(=O)Nc2ccc(Cl)c(Cl)c2)cc1)N=Nc1c(O)[nH]c2ccc(Cl)cc12` ? true (1)

`N/C(=N\c1nc2ccccc2s1)NC(=O)NCCCCCCO` ? true (1)

Now for another entry.
Fill in: this test's call for `COc1ccc2[nH]cc(-c3nnc(N)nc3-c3cn(C)c4ncc(Br)cc34)c2c1` is ___ false (0)

Where do the numbers come from? From PubChem BioAssay (NCI).
